test system: L1210 leukemia ip in BDF1 mice, survival T/C; test: NCI In Vivo Anticancer Drug Screen. Data for tumor model L1210 Leukemia (intraperitoneal) in B6D2F1 (BDF1) mice; conditions: endpoint: mean survival time; dose: 200.0 mg/kg/injection; schedule: Q04DX002 (ip); vehicle: saline with Tween-80; higher = longer survival
Inconclusive results and toxic doses are left out.
As shown below, each of these compounds has a reported T/C value.
Reported property: T/C

[[record]]
compound = "CCOC(=O)C1C2/C=C/CCCCC21 (stereo unspecified)"
reported_property = "T/C"
endpoint_result = "112 % of control"

[[record]]
compound = "CC(=O)OC1C=C2CCCCC2(C)CC1 (stereo unspecified)"
reported_property = "T/C"
endpoint_result = "111 % of control"

[[record]]
compound = "CCNc1nnc(N=Nc2ccccc2)s1"
reported_property = "T/C"
endpoint_result = "98 % of control"

[[record]]
compound = "OC1COC(c2ccccc2)OC1C(O)C1OC(c2ccccc2)OCC1O (stereo unspecified)"
reported_property = "T/C"
endpoint_result = "105 % of control"

[[record]]
compound = "Cc1ccccc1NC(=O)CC#N"
reported_property = "T/C"
endpoint_result = "101 % of control"

[[record]]
compound = "O=C1NC(=O)C(=Cc2ccccc2)C(=O)N1"
reported_property = "T/C"
endpoint_result = "106 % of control"

[[record]]
compound = "O=C(CCCC(=O)NO)NO"
reported_property = "T/C"
endpoint_result = "100 % of control"

[[record]]
compound = "ClCc1noc(-c2ccccc2)n1"
reported_property = "T/C"
endpoint_result = "95 % of control"

[[record]]
compound = "CCC[CH2][Tl]([Br])[CH2]CCC"
reported_property = "T/C"
endpoint_result = "103 % of control"

[[record]]
compound = "CC(=O)c1cccc(O)c1"
reported_property = "T/C"
endpoint_result = "95 % of control"

[[record]]
compound = "O=S(=O)(O)c1ccc(-c2ccc([As](=O)(O)O)cc2)cc1"
reported_property = "T/C"
endpoint_result = "103 % of control"


* * *

Here, each record is paired with measured T/C data.
test system: L1210 leukemia ip in BDF1 mice, survival T/C; assay: NCI In Vivo Anticancer Drug Screen. Data for tumor model L1210 Leukemia (intraperitoneal) in B6D2F1 (BDF1) mice; conditions: endpoint: mean survival time; dose: 20.0 mg/kg/injection; schedule: Q01DX001 (ip); vehicle: saline; higher = longer survival
Inconclusive results and toxic doses are left out.
Reported property: T/C

[[record]]
compound = "CC(=O)NC1CCCCCC1I (stereo unspecified)"
study_target = "L1210 leukemia ip in BDF1 mice, survival T/C"
endpoint_result = "101 % of control"

[[record]]
compound = "[O]=[Sb]([OH])([c]1ccccc1)[c]1ccccc1"
study_target = "L1210 leukemia ip in BDF1 mice, survival T/C"
endpoint_result = "91 % of control"

[[record]]
compound = "CN(C)CCCNc1c2ccccc2nc2ccccc12"
study_target = "L1210 leukemia ip in BDF1 mice, survival T/C"
endpoint_result = "98 % of control"

[[record]]
compound = "CCCCCCCCCCCCCCCC[N+]1(CC)CCOCC1"
study_target = "L1210 leukemia ip in BDF1 mice, survival T/C"
endpoint_result = "103 % of control"

[[record]]
compound = "Cc1scc[n+]1Cc1ccccc1[N+](=O)[O-]"
study_target = "L1210 leukemia ip in BDF1 mice, survival T/C"
endpoint_result = "105 % of control"

[[record]]
compound = "c1ccc(C[As+](c2ccccc2)(c2ccccc2)c2ccccc2)cc1"
study_target = "L1210 leukemia ip in BDF1 mice, survival T/C"
endpoint_result = "93 % of control"


Taken from PubChem BioAssay AID248.
